# Tested target: p75^NTR (Rattus norvegicus)
# Construct: expressed in transfected cells; host or cells: HEK293
# Experiment notes: [3H]-DHEA saturation binding to membranes of HEK293 cells transfected with p75NTR cDNA
# Test settings: KD of [3H]-DHEA binding (Scatchard analysis), 25°C for 30 min, n = 3
Readout: Kd (nM)
Respond with the bare value in nM.

In: Please tell me: Kd of C[C@]12CC[C@H](O)CC1=CC[C@@H]1[C@@H]2CC[C@]2(C)C(=O)CC[C@@H]12 [DHEA, dehydroepiandrosterone] , system p75^NTR (Rattus norvegicus)?
Out: 5.6

----------
# Tested target: p75^NTR (Rattus norvegicus, UniProt P07174)
# Construct: expressed in transfected cells; host or cells: HEK293
# Sequence (P07174 30-425): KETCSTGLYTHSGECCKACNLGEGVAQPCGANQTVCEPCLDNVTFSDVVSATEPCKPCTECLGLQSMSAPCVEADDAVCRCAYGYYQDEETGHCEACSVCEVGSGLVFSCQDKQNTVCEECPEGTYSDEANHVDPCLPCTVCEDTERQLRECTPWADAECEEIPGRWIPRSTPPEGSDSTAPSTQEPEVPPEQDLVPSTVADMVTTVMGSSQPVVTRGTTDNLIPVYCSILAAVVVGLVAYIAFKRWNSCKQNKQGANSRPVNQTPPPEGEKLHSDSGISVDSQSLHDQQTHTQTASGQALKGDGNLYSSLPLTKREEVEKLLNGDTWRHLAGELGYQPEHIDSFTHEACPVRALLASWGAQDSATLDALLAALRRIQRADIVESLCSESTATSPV
# Experiment notes: Heterologous [3H]-DHEA displacement, HEK293^p75NTR cell membranes
# Type: binding
Readout: IC50

In: I have this molecule here, C[C@]12CC[C@H]3[C@@H](CCC4=CC(=O)CC[C@@]43C)[C@@H]1CC[C@@H]2O [testosterone] , and I need its recorded IC50.
Out: 7.4 nM
